Data credit: ChEMBL document CHEMBL5390253

test: Antiproliferative activity against 3D-cultured human Osimertinib-resistant NCI-H1975 cell incubated for 72 hrs by MTT assay; assay type: functional, cell-based; conditions: NCI-H1975, 72 h
pIC50: −log10 of the molar value.
readout_type: pIC50

State, in one line, measured pIC50 of O=C(NCCN1CCOCC1)c1ccc2cc1OCCCCCCOc1cc(ccc1F)-c1nc(ncc1F)N2 > 7.30

----------
assay: AUC in Sprague-Dawley rat at 2 mg/kg, iv measured upto 24 hrs; assay type: ADME, organism-based; set-up: dose 2 mg/kg, time < 24 hrs, route iv; details: in vivo
readout_type: AUC at 24 h (ng·h/mL)
Answers are plain numbers, in ng·h/mL.

Recall and state the measured AUC at 24 h for O=C(NCCN1CCOCC1)c1ccc2cc1OCCCCCCOc1cc(ccc1F)-c1nc(ncc1F)N2 . 1080

----------
experiment: Antitumor activity against patient derived #2422 lung cancer organoid assessed as inhibition of growth measured after 4 days; assay type: functional, tissue-based; conditions: Homo sapiens, 96 h
pIC50: −log10 of the molar value.
readout_type: pIC50

Tell me measured pIC50 for O=C(NCCN1CCOCC1)c1ccc2cc1OCCCCCCOc1cc(ccc1F)-c1nc(ncc1F)N2 please. > 7.10

----------
target: CDK2/Cyclin A2 (Homo sapiens); test: Inhibition of CDK2/Cyclin A2 (unknown origin) preincubated for 10 mins followed by substrate addition and measured after 60 mins in presence of ATP by ADP-Glo reagent based assay
pIC50: −log10 of the molar value.
Use 7 as the dividing line for pIC50, with the line itself on the class 1 side and lower values as class 0.

Answered examples (3):
CN(C)CCNC(=O)c1ccc2cc1OCCCCOc1cc(ccc1F)-c1nc(ncc1F)N2 ... class 1
O=C(NCCN1CCOCC1)c1ccc2cc1OCCCCCCOc1cc(ccc1F)-c1nc(ncc1F)N2 ... class 0
O=C(NCCN1CCOCC1)c1ccc2cc1OCCOCCOc1cc(ccc1F)-c1nc(ncc1F)N2 ... class 1

Now for a further compound.
hey, is pIC50 for this one >= 7? CN1CCN(CCNC(=O)c2ccc3cc2OCCCCCCOc2cc(ccc2F)-c2nc(ncc2F)N3)CC1 class 1

----------
target: CDK9/cyclin T1 (Homo sapiens, UniProt P50750); experiment: Inhibition of CDK9/Cyclin-T1 (unknown origin) preincubated for 10 mins followed by substrate addition and measured after 60 mins in presence of ATP by ADP-Glo reagent based assay
Sequence (O60563 whole entry): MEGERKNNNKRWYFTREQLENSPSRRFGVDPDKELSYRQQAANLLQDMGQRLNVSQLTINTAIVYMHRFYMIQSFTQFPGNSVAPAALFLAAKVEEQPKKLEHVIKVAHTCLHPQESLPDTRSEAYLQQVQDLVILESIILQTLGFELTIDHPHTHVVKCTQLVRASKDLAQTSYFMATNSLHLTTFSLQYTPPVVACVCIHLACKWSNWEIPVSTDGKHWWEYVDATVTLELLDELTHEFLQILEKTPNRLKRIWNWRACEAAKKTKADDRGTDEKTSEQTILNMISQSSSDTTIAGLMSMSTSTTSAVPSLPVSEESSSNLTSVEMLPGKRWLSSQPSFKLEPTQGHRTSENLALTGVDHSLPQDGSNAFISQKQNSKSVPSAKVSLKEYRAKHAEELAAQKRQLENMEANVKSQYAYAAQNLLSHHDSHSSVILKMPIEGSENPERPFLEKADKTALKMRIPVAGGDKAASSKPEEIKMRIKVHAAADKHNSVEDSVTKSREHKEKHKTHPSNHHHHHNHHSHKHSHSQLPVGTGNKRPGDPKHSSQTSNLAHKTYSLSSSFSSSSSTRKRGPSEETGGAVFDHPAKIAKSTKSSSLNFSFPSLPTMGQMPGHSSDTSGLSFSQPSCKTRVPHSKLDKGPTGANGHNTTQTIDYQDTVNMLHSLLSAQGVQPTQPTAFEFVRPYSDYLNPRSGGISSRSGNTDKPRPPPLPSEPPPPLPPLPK
Sequence (P50750 whole entry): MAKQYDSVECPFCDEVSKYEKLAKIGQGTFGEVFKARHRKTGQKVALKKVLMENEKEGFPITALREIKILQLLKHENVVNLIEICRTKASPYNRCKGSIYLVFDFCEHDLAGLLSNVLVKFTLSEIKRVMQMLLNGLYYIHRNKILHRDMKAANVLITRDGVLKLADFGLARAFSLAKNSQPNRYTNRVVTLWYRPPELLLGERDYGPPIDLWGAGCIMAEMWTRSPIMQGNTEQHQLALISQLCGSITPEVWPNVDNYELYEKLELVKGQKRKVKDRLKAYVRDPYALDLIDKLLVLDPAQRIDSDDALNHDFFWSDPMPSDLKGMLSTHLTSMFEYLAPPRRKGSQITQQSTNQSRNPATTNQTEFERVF
readout_type: pIC50
One number for each entry, as −log10 of the molar value.

Before answering, review these 4 worked examples.
O=C(NC1CCN(C2CCOCC2)CC1)c1ccc2cc1OCCCCCCOc1cc(ccc1F)-c1nc(ncc1F)N2 ... 8.59
CN1CCN(CCNC(=O)c2ccc3cc2OCCCCCCOc2cc(ccc2F)-c2nc(ncc2F)N3)CC1 ... 8.64
O=C(NCCN1CCOCC1)c1ccc2cc1COCCCCOCc1cc(ccc1F)-c1nc(ncc1F)N2 ... 8.11
COc1cc(F)ccc1-c1ncnc(Nc2ccc(C(=O)NCCN(C)C)cc2)n1 ... 8.51

Provide only the value of recorded pIC50 for CN1CCC(NC(=O)c2ccc3cc2OCCCCCCOc2cc(ccc2F)-c2nc(ncc2F)N3)CC1 8.49

----------
test system: HCC827; assay: Antiproliferative activity against human HCC827 cells incubated for 72 hrs by MTT assay; type: functional, cell-based; settings: HCC827, 72 h
pIC50: −log10 of the molar value.
Binary classification by pIC50, with 6 as an inclusive lower bound for T; all other cases are F.

O=C(NCCN1CCOCC1)c1ccc2cc1OCCOCCOc1cc(ccc1F)-c1nc(ncc1F)N2 ... T
O=C(c1ccc2cc1OCCCCOc1cc(ccc1F)-c1nc(ncc1F)N2)N1CCC(N2CCOCC2)CC1 ... F
COc1cc(F)ccc1-c1ncnc(Nc2ccc(C(=O)NCCN(C)C)cc2)n1 ... F
C=CC(=O)Nc1cc(Nc2nccc(-c3cn(C)c4ccccc34)n2)c(OC)cc1N(C)CCN(C)C [OSIMERTINIB] ... T
CN(C)CCNC(=O)c1ccc2cc1OCCCCOc1cc(ccc1F)-c1nc(ncc1F)N2 ... T
O=C(NC1CCC(N2CCOCC2)CC1)c1ccc2cc1OCCCCCCOc1cc(ccc1F)-c1nc(ncc1F)N2 (stereo unspecified) ... T
O=C(NCCN1CCOCC1)c1ccc2cc1OCCCCOc1cc(ccc1F)-c1nc(ncc1F)N2 ... T
O=C(c1ccc2cc1OCCCCOc1cc(ccc1F)-c1nc(ncc1F)N2)N1CCNCC1 ... F

Is pIC50 for O=C(NC1CCCNCC1)c1ccc2cc1OCCCCOc1cc(ccc1F)-c1nc(ncc1F)N2 (stereo unspecified) at or above 6? T

In plain terms: is recorded pIC50 at least 6 for O=C(NCC1CCNCC1)c1ccc2cc1OCCCCOc1cc(ccc1F)-c1nc(ncc1F)N2 ? T

I'd appreciate it if you could say whether O=C(NCCN1CCOCC1)c1ccc2cc1OCCCCCOc1cc(ccc1F)-c1nc(ncc1F)N2 has pIC50 at least equal to 6. T

Textbook exercise: given the entry O=C(c1ccc2cc1OCCCCOc1cc(ccc1F)-c1nc(ncc1F)N2)N1CCC(N2CCOCC2)C1 (stereo unspecified) , state whether its pIC50 is greater than or equal to 6. F

Entry O=C(c1ccc2cc1OCCCCOc1cc(ccc1F)-c1nc(ncc1F)N2)N1CCCNCC1 : is its pIC50 no less than 6? F

Please check the record O=C(NC1CCOCC1)c1ccc2cc1OCCCCOc1cc(ccc1F)-c1nc(ncc1F)N2 and state if its pIC50 is at or above 6. T

Could you verify whether the entry O=C(NC1CCN(C2CCOCC2)CC1)c1ccc2cc1OCCCCCCOc1cc(ccc1F)-c1nc(ncc1F)N2 shows pIC50 of no less than 6? T

Could you verify whether the entry O=C(NCCN1CCOCC1)c1ccc2cc1OCCCCCCOc1cc(ccc1F)-c1nc(ncc1F)N2 shows pIC50 of no less than 6? T
